Where do these numbers come from? They come from patent US7488751B2.

biological target: cloned human 5-HT1A receptors (Homo sapiens, UniProt P08908); construct: expressed in transfected cells; experiment: 35S-GTPγS binding assay, 5-HT1A function; assay type: biochemical; details: maximum inhibitory effect; 35S-GTPγS binding, reversal of 8-OHDPAT; unit assumed
Sequence (P08908 whole entry): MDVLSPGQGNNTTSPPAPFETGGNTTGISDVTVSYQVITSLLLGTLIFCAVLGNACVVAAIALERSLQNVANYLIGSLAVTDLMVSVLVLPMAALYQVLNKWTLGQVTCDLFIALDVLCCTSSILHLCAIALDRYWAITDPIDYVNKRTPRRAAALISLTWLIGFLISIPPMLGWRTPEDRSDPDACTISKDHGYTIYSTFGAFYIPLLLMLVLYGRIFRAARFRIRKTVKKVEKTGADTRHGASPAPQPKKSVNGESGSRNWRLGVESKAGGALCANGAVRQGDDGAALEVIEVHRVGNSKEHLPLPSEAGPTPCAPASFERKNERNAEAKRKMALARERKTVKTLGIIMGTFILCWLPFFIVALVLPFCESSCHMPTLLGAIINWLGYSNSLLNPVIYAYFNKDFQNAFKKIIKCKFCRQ
Property Name: 5-HT1A Function (Imax) (%)

[[record]]
compound = "COc1cccc2c1O[C@@H](CN[C@H]1CC[C@H](c3c[nH]c4ccc(F)cc34)C1)CO2 (single isomer, unassigned) [Example 2-Isomer A]"
numeric_result = 84


(a) COc1cccc2c1O[C@@H](CN[C@H]1CC[C@H](c3c[nH]c4ccc(F)cc34)C1)CO2 (mixture of isomers) [Example 2]
(b) COc1cccc2c1O[C@@H](CN[C@H]1CC[C@H](c3c[nH]c4ccc(C#N)cc34)C1)CO2 (single isomer, unassigned) [Example 7-Isomer B]
Exam item: Field: entry with larger 5-HT1A Function (Imax) (options a / b ). Lab note: record the label of whichever item you select.
Marked response: a
(a: 99%, b: 56%)

---

pKi: −log10 of the molar value.
What follows is a record of pKi for serotonin transporter (Rattus norvegicus).
Property Name: pKi

# annotated cases, reported pKi shown
[[record]]
compound = "COc1cccc2c1O[C@@H](CN[C@@H]1CC[C@H](c3cn(C)c4ccc(C#N)cc34)C1)CO2 (single isomer, unassigned) [Example 8-Isomer A]"
property_name = "pKi"
numeric_result = 8.22

[[record]]
compound = "COc1cccc2c1O[C@@H](CN[C@@H]1CC[C@H](c3c[nH]c4ccc(F)cc34)C1)CO2 (single isomer, unassigned) [Example 1-Isomer A]"
property_name = "pKi"
numeric_result = 8.89

[[record]]
compound = "COc1cccc2c1O[C@@H](CN[C@@H]1CC[C@@H](c3c[nH]c4ccc(F)cc34)C1)CO2 (single isomer, unassigned) [Example 2-Isomer B]"
property_name = "pKi"
numeric_result = 9.10


(I) CCOc1cccc2c1O[C@@H](CN[C@H]1CC[C@H](c3c[nH]c4ccc(F)cc34)C1)CO2 (mixture of isomers) [Example 6]
(II) COc1cccc2c1O[C@@H](CN[C@H]1CC[C@H](c3c[nH]c4ccc(F)cc34)C1)CO2 (single isomer, unassigned) [Example 2-Isomer A]
Exam item: Pick one: I or II . Which one has the lower reported pKi? Pick one; state its label.
Marked response: II
(II: 9.00, I: 9.37)

(A) COc1cccc2c1O[C@@H](CN[C@@H]1CC[C@H](c3c[nH]c4ccc(C#N)cc34)C1)CO2 (single isomer, unassigned) [Example 7-Isomer A]
(B) COc1cccc2c1O[C@@H](CN[C@H]1CC[C@H](c3cn(C)c4ccc(C#N)cc34)C1)CO2 (single isomer, unassigned) [Example 8-Isomer B]
Exam item: Lab notebook, comparison: A versus B , higher pKi goes to which? Select an item and report its label.
Marked response: A

(P) COc1cccc2c1O[C@@H](CN[C@H]1CC[C@@H](c3c[nH]c4ccc(F)cc34)C1)CO2 (single isomer, unassigned) [Example 1-Isomer B]
(Q) COc1cccc2c1O[C@@H](CN[C@H]1CC[C@H](c3cn(C)c4ccc(F)cc34)C1)CO2 (mixture of isomers) [Example 4]
Exam item: Among P and Q , which shows a numerically higher pKi result? Output the label that corresponds to your choice.
Marked response: P
(P: 8.72, Q: 8.41)
